- experimental_system: bovine serum albumin (BSA) (Bos taurus, UniProt P02769)
- Construct: purchased Sigma-Aldrich
- Sequence (P02769 25-607): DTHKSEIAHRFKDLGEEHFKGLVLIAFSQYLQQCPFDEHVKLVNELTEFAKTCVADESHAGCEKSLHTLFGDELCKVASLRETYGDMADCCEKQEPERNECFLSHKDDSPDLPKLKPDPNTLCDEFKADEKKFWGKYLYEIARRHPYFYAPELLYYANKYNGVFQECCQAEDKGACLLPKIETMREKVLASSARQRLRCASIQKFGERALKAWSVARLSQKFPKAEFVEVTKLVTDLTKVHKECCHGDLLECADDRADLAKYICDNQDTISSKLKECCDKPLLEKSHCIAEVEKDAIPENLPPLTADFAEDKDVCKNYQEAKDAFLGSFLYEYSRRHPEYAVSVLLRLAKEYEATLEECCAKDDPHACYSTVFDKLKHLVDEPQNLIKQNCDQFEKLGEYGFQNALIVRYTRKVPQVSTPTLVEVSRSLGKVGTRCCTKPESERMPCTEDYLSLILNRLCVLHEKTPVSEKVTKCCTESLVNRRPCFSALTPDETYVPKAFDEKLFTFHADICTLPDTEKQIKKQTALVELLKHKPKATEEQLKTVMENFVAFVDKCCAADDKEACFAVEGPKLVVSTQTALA
- assay_text: Competitive site-marker (warfarin, ibuprofen) binding to BSA
- setup_conditions: Binding constant (KA), BSA, site marker: Warfarin, 25 °C
recorded_metric: Kd (µM)

{"columns": ["compound", "measurement"],
 "data": [
  ["O=C(O[C@@H]1Cc2c(O)cc(O)cc2O[C@@H]1c1cc(O)c(O)c(O)c1)c1cc(O)c(O)c(O)c1 [EGCG, epigallocatechin-3-gallate, reference compound]", 7.69]
]}

----------
- experimental_system: bovine serum albumin (BSA) (Bos taurus)
- Construct: purchased Sigma-Aldrich
- assay_text: Competitive site-marker (warfarin, ibuprofen) binding to BSA
- setup_conditions: Binding constant (KA), BSA, site marker: Ibuprofen, 25 °C
pKd: −log10 of the molar value.

{"columns": ["compound", "pKd"],
 "data": [
  ["O=C(O[C@@H]1Cc2c(O)cc(O)cc2O[C@@H]1c1cc(O)c(O)c(O)c1)c1cc(O)c(O)c(O)c1 [EGCG, epigallocatechin-3-gallate, reference compound]", 7.09]
]}

----------
- experimental_system: free recombinant human DHFR (rHDHFR) (Homo sapiens, UniProt P00374)
- Construct: made in house; host or cells: Bombyx mori chrysalides
- Sequence (P00374 whole entry): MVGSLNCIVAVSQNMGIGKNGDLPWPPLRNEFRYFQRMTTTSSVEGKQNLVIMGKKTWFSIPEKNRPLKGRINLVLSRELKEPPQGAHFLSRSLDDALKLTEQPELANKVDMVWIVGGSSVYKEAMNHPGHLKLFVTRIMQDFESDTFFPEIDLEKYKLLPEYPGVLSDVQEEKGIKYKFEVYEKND
- assay_text: Binding of polyphenols to free rHDHFR by fluorescence quenching titration
- setup_conditions: pH 7.5, 25 °C, fluorescence titration; read-out: Dissociation constant KD of free rHDHFR

{"columns": ["compound", "experimental_system", "Kd / µM"],
 "data": [
  ["COc1cc(C(=O)O[C@H]2Cc3c(O)cc(O)cc3O[C@@H]2c2ccc(O)c(O)c2)cc(OC)c1OC", "free recombinant human DHFR (rHDHFR) (Homo sapiens, UniProt P00374)", 0.9],
  ["COc1cc(C(=O)O[C@@H]2Cc3c(O)cc(O)cc3O[C@@H]2c2ccc(O)c(O)c2)cc(OC)c1OC", "free recombinant human DHFR (rHDHFR) (Homo sapiens, UniProt P00374)", 2.1],
  ["COc1cc(C(=O)OC2Cc3c(O)cc(O)cc3OC2c2ccc(O)c(O)c2)cc(OC)c1O (stereo not drawn) [SYECG]", "free recombinant human DHFR (rHDHFR) (Homo sapiens, UniProt P00374)", 0.77],
  ["O=C(O[C@H]1Cc2c(O)cc(O)cc2O[C@@H]1c1ccc(O)c(O)c1)c1cc(O)c(O)c(O)c1 [CG, catechin-3-gallate, reference compound]", "free recombinant human DHFR (rHDHFR) (Homo sapiens, UniProt P00374)", 0.56],
  ["COc1cc(C(=O)OC2Cc3c(O)cc(O)cc3OC2c2ccc(O)c(O)c2)cc(OC)c1O (stereo not drawn) [SYCG]", "free recombinant human DHFR (rHDHFR) (Homo sapiens, UniProt P00374)", 0.72],
  ["O=C(O[C@@H]1Cc2c(O)cc(O)cc2O[C@@H]1c1ccc(O)c(O)c1)c1cc(O)c(O)c(O)c1 [ECG, epicatechin-3-gallate, reference compound]", "free recombinant human DHFR (rHDHFR) (Homo sapiens, UniProt P00374)", 0.81]
]}

----------
- experimental_system: bovine serum albumin (BSA) (Bos taurus)
- Construct: purchased Sigma-Aldrich
- assay_text: Competitive site-marker (warfarin, ibuprofen) binding to BSA
- setup_conditions: Binding constant (KA), BSA, site marker: Blank, 25 °C
pKd: −log10 of the molar value.
recorded_metric: pKd

{"columns": ["compound", "recorded_metric", "measurement"],
 "data": [
  ["O=C(O[C@@H]1Cc2c(O)cc(O)cc2O[C@@H]1c1cc(O)c(O)c(O)c1)c1cc(O)c(O)c(O)c1 [EGCG, epigallocatechin-3-gallate, reference compound]", "pKd", 7.19]
]}
